Peptide text beside a SMILES is read from it.
// NTF2 domain of G3BP1 (Homo sapiens) Ki records
Answer in µM, number only, no unit symbol.

| compound | Ki [µM] |
| --- | --- |
| CC(=O)N[C@@H](CC(N)=O)C(=O)N[C@@H](CC(C)C)C(=O)N[C@@H](CCC(N)=O)C(=O)N[C@@H](Cc1ccccc1)C(=O)NCC(=O)N[C@@H](C)C(=O)N[C@@H](CC(C)C)C(=O)N[C@@H](CCC(N)=O)C(=O)N[C@@H](Cc1ccccc1)C(=O)NCC(=O)N[C@@H](CO)C(=O)N[C@@H](CCC(=O)O)C(=O)N1CCC[C@H]1C(=O)N[C@H](C(=O)N[C@@H](Cc1ccc(O)cc1)C(=O)O)C(C)C [UBAP2L 515-528 Human] (Ac-NLQFGALQFGSEPVY-OH) | 34 |

In the following, a different compound is considered.
Result for CC(=O)N[C@@H](C)C(=O)N1CCC[C@H]1C(=O)N[C@@H](CCCNC(=N)N)C(=O)N[C@@H](C)C(=O)N[C@H](C(=O)N[C@H](C(=O)N[C@@H](Cc1ccccc1)C(=O)NCC(=O)N[C@@H](CC(=O)O)C(=O)N[C@@H](CC(N)=O)C(=O)N[C@@H](CC(N)=O)C(=O)N[C@@H](CC(=O)O)C(=O)N[C@@H](CC(N)=O)C(=O)N[C@@H](CC(N)=O)C(=O)N[C@H](C(=O)N[C@@H](Cc1ccc(O)cc1)C(N)=O)[C@@H](C)O)[C@@H](C)O)C(C)C [N 6-20 Mers1] (Ac-APRAVTFGDNNDNNTY-NH2) , tested on NTF2 domain of G3BP1 (Homo sapiens), Ki: 51
